- test name: Pharmacokinetics assay in rats
- Format: in vivo, SD rats
- test settings: SD rats, intragastric, 50 mg/Kg (as free acid); 50 mg/kg
measured metric: Half-Life t½ (h)
Record the value in h, omitting the unit from your answer.

Consider the following illustrative entries.
Fill blank: measured Half-Life t½ of the compound CC1=NN(c2ccc3c(c2)CCCC3)C(=O)/C1=N\Nc1cccc(-c2ccc(C(=O)O)o2)c1O [Example 10] is ____. 12.9

Return reported Half-Life t½; argument: CC1=NN(c2ccc3c(c2)C(C)(C)CC3)C(=O)/C1=N\Nc1cccc(-c2ccc(C(=O)O)o2)c1O [Example 4h] 19.8

More entries:
Any idea what its Half-Life t½ is? The compound is CC1=NN(c2ccc3c(c2)CCCC3)C(=O)/C1=N\Nc1cccc(-c2ccc(C(=O)O)o2)c1O [Example 9] 9.65

Param item = CC1=NN(c2ccc3c(c2)CCCC3)C(=O)/C1=N\Nc1cccc(-c2ccc(C(=O)O)o2)c1O [Example 11] ; retrieve measured Half-Life t½. 12.1

Consider the compound CC1=NN(c2ccc3c(c2)CCCC3)C(=O)/C1=N\Nc1cccc(-c2ccc(C(=O)O)o2)c1O [Example 15] and give its measured Half-Life t½. 6.56

Look up Half-Life t½ for this compound: CC1=NN(c2ccc3c(c2)CCC3)C(=O)/C1=N\Nc1cccc(-c2cccc(C(=O)O)c2)c1O [Example 1j] 4.21

Data request, read-out Half-Life t½, for CC1=NN(c2ccc3c(c2)CCC3)C(=O)/C1=N\Nc1cccc(-c2csc(C(=O)O)c2)c1O [Example 19d] 1.84

For the compound CC1=NN(c2ccc3c(c2)CCC3)C(=O)/C1=N\Nc1cccc(-c2ccc(C(=O)O)o2)c1O [Example 16a] , what Half-Life t½ is on record? 1.82

I am curious: what Half-Life t½ value has been reported for CC1=NN(c2ccc3c(c2)CCC3)C(=O)/C1=N\Nc1cccc(-c2csc(C(=O)O)c2)c1O [Example 21] ? 6.86

For the compound CC1=NN(c2ccc3c(c2)C(C)(C)CC3)C(=O)/C1=N\Nc1cccc(-c2ccc(C(=O)O)o2)c1O [Example 5] , what Half-Life t½ is on record? 15.0

# input compound: CC1=NN(c2ccc3c(c2)CCCC3)C(=O)/C1=N\Nc1cccc(-c2ccc(C(=O)O)o2)c1O [Example 7d] ; wanted: its Half-Life t½ 7.42

---

A collection of compounds and their measured MRT
- test name: Pharmacokinetics assay in rats
- Format: in vivo, SD rats
- test settings: both sexes, SD, rat, plasma, po, 50 mg/kg, SD rats, intragastric, 50 mg/Kg (as free acid); read-out: Mean Residence Time MRT
The answer is to be given in h; state only the numeric part.

Look up MRT: CC1=NN(c2ccc3c(c2)CCCC3)C(=O)/C1=N\Nc1cccc(-c2coc(C(=O)O)c2)c1O [Example 22f] 11.8

Please give the measured MRT for this compound: `CC1=NN(c2ccc3c(c2)CCCC3)C(=O)/C1=N\Nc1cccc(-c2coc(C(=O)O)c2)c1O.NCCO.NCCO` 14.8

Recorded MRT of `CC1=NN(c2ccc3c(c2)CCC3)C(=O)/C1=N\Nc1cccc(-c2csc(C(=O)O)c2)c1O.NCCO.NCCO` , please. 7.85

May I ask what MRT has been recorded for CC1=NN(c2ccc3c(c2)CCC3)C(=O)/C1=N\Nc1cccc(-c2ccc(C(=O)O)o2)c1O [Example 16a] ? 4.03

Report MRT for CC1=NN(c2ccc(C)c(C)c2)C(=O)/C1=N\Nc1cccc(-c2cccc(C(=O)O)c2)c1O [Eltrombopag, eltrombopag, reference compound] please. 11.2

Continuing:
If you can, please state the reported MRT value of `CC1=NN(c2ccc3c(c2)CCC3)C(=O)/C1=N\Nc1cccc(-c2ccc(C(=O)O)o2)c1O.NCCO.NCCO` . 3.84

I have this compound here, `CC1=NN(c2ccc3c(c2)C(C)(C)CC3)C(=O)/C1=N\Nc1cccc(-c2ccc(C(=O)O)o2)c1O.NCCO.NCCO` , and I need its recorded MRT. 38.3

---

- test name: Pharmacokinetics assay in rats
- Type: in vivo, SD rats
- test settings: both sexes, SD, rat, plasma, po, 50 mg/kg, SD rats, intragastric, 50 mg/Kg (as free acid); read-out: Time to peak Tmax
measured metric: Tmax

# annotated cases, reported Tmax shown
Fill in the blank: the reported Tmax of `CC1=NN(c2ccc3c(c2)CCCC3)C(=O)/C1=N\Nc1cccc(-c2ccc(C(=O)O)o2)c1O.NCCO.NCCO` is ____. 1.75 h

So what does the record say about Tmax for CC1=NN(c2ccc(C)c(C)c2)C(=O)/C1=N\Nc1cccc(-c2cccc(C(=O)O)c2)c1O [Eltrombopag, eltrombopag, reference compound] ? 5.5 h

// query Tmax value for entry `CC1=NN(c2ccc3c(c2)CCC3)C(=O)/C1=N\Nc1cccc(-c2ccc(C(=O)O)o2)c1O.NCCO.NCCO` 2 h

Below: the item to evaluate.
Which measured Tmax value corresponds to `CC1=NN(c2ccc3c(c2)CCCC3)C(=O)/C1=N\Nc1cccc(-c2coc(C(=O)O)c2)c1O.NCCO.NCCO` ? 5 h

---

# log10 of half-life values compiled below
- test name: Pharmacokinetics assay in rats
- Type: in vivo, SD rats
- test settings: both sexes, SD, rat, plasma, po, 50 mg/kg, SD rats, intragastric, 50 mg/Kg (as free acid); read-out: Half-Life t½ (converted)
In our notation, the value equals log10 of half-life in min.

# example entries with known answers
Need log10 of half-life of `CC1=NN(c2ccc3c(c2)C(C)(C)CC3)C(=O)/C1=N\Nc1cccc(-c2ccc(C(=O)O)o2)c1O.NCCO.NCCO` , thanks. 3.21

I am curious: what log10 of half-life value has been reported for CC1=NN(c2ccc(C)c(C)c2)C(=O)/C1=N\Nc1cccc(-c2cccc(C(=O)O)c2)c1O [Eltrombopag, eltrombopag, reference compound] ? 2.67

New cases:
# input compound: `CC1=NN(c2ccc3c(c2)CCC3)C(=O)/C1=N\Nc1cccc(-c2csc(C(=O)O)c2)c1O.NCCO.NCCO` ; wanted: its log10 of half-life 2.54

---

- test name: Pharmacokinetics assay in rats
- Type: in vivo, SD rats
- test settings: SD rats, intragastric, 50 mg/Kg (as free acid); 50 mg/kg
- Experimental: The compounds of the present disclosure were administrated intragastrically to rats to determine the drug concentration in plasma at different time points by HPLC-UV. The pharmacokinetic behavior of the compounds of the present disclosure was studied and evaluated in rats. […] 40 μL of the supernatant was analyzed by HPLC-UV. […]
Label Criterion met when Time to peak Tmax is at or above 3 h; anything below gets Criterion not met.

Recorded results for 2 compounds are shown here.
hey, is Time to peak Tmax for this one >= 3 h? CC1=NN(c2ccc3c(c2)CCCC3)C(=O)/C1=N\Nc1cccc(-c2ccc(C(=O)O)o2)c1O [Example 8] Criterion not met

Item CC1=NN(c2ccc3c(c2)CCCC3)C(=O)/C1=N\Nc1cccc(-c2ccc(C(=O)O)o2)c1O [Example 7d] with Time to peak Tmax of 3 h or above? Criterion not met

Others:
Tell me whether Time to peak Tmax is at least 3 h here: CC1=NN(c2ccc3c(c2)C(C)(C)CC3)C(=O)/C1=N\Nc1cccc(-c2ccc(C(=O)O)o2)c1O [Example 5] Criterion met

Can `CC1=NN(c2ccc3c(c2)CCC3)C(=O)/C1=N\Nc1cccc(-c2cccc(C(=O)O)c2)c1O` be said to have Time to peak Tmax at or above 3 h? Criterion met

---

- test name: Pharmacokinetics assay in Beagle dogs
- Type: in vivo
- test settings: male, beagle, dog, plasma, po, 5 mg/kg, intragastric, 5 mg/kg (as free acid), read-out: Half-Life t1/2 (converted)
Parameter: half-life. Scope: all listed entries.
State just the number; it will be interpreted in h.

Would you mind telling me what half-life value was observed for CC1=NN(c2ccc3c(c2)CCCC3)C(=O)/C1=N\Nc1cccc(-c2ccc(C(=O)O)o2)c1O [Example 12] ? 6.86

New cases:
Name the reported half-life value associated with the compound CC1=NN(c2ccc3c(c2)CCCC3)C(=O)/C1=N\Nc1cccc(-c2ccc(C(=O)O)o2)c1O.NCCO.NCCO [Example 7] 8.24

---

- test name: Pharmacokinetics assay in rats
- Type: in vivo, SD rats
- test settings: both sexes, SD, rat, plasma, po, 50 mg/kg, SD rats, intragastric, 50 mg/Kg (as free acid); read-out: Apparent Distribution Volume Vz/F
measured metric: Vd/F (L/kg)
Expressed in L/kg, but write only the number.

Some solved cases for reference:
Reported Vd/F, compound CC1=NN(c2ccc3c(c2)CCC3)C(=O)/C1=N\Nc1cccc(-c2csc(C(=O)O)c2)c1O.NCCO.NCCO [Example 19] : ____ 5.47

Give the measured Vd/F of CC1=NN(c2ccc3c(c2)CCCC3)C(=O)/C1=N\Nc1cccc(-c2coc(C(=O)O)c2)c1O.NCCO.NCCO [Example 22] . 3.41

***
Dear colleague, I am looking for the recorded Vd/F of the following compound: CC1=NN(c2ccc3c(c2)C(C)(C)CC3)C(=O)/C1=N\Nc1cccc(-c2ccc(C(=O)O)o2)c1O.NCCO.NCCO [Example 4] 58.1
